# System: SK-BR-3
# Assay summary: Antiproliferative activity, CCK-8, SK-BR-3
# Format: cell-based
# Protocol conditions: SK-BR-3, Breast cancer; read-out: Cytotoxicity (IC50 μM)
Reported endpoint: IC50 (µM)

1. C[C@@H](c1ccc(C(=O)Nc2ccc(F)cc2N)cc1)n1nc(-c2ccc(CN(C)C)cc2)ccc1=O : 0.72

* * *

# Tested on: VMM39
# Assay summary: Antiproliferative activity, CCK-8, VMM39
# Type: cell-based
# Protocol conditions: VMM39, Melanoma; read-out: Cytotoxicity (IC50 μM)
Reported endpoint: IC50 (µM)

1. C[C@@H](c1ccc(C(=O)Nc2ccc(F)cc2N)cc1)n1nc(-c2ccc(CN(C)C)cc2)ccc1=O : 0.46

* * *

# Tested on: OCI-LY-10
# Assay summary: Antiproliferative activity, CCK-8, OCI-LY-10
# Type: cell-based
# Protocol conditions: OCI-LY-10, Diffuse large B-cell lymphoma; read-out: Cytotoxicity (IC50 μM)
Reported endpoint: IC50 (µM)

1. C[C@@H](c1ccc(C(=O)Nc2ccc(F)cc2N)cc1)n1nc(-c2ccc(CN(C)C)cc2)ccc1=O : 0.297

* * *

# Test system: NCI-H929
# Assay summary: Antiproliferative activity, CCK-8, NCI-H929
# Assay type: cell-based
# Protocol conditions: NCI-H929, Human multiple myeloma; read-out: Cytotoxicity (IC50 μM)
Reported endpoint: IC50 (µM)

1. C[C@@H](c1ccc(C(=O)Nc2ccc(F)cc2N)cc1)n1nc(-c2ccc(CN(C)C)cc2)ccc1=O : 0.642

* * *

pIC50: −log10 of the molar value.
Reported pIC50 for target or system HDAC10 (Homo sapiens (Human)), by entry.
Reported endpoint: pIC50

1. C[C@H](c1ccc(C(=O)Nc2ccc(F)cc2N)cc1)n1nc(-c2ccc(CN(C)C)cc2)ccc1=O [I-1 (R configuration), reference compound] : < 4.00
2. C[C@@H](c1ccc(C(=O)Nc2ccccc2N)cc1)n1nc(-c2ccc(CN(C)C)cc2)ccc1=O : < 4.00

* * *

# Study target: HDAC1 (Homo sapiens (Human))
# Sequence (Q13547 whole entry): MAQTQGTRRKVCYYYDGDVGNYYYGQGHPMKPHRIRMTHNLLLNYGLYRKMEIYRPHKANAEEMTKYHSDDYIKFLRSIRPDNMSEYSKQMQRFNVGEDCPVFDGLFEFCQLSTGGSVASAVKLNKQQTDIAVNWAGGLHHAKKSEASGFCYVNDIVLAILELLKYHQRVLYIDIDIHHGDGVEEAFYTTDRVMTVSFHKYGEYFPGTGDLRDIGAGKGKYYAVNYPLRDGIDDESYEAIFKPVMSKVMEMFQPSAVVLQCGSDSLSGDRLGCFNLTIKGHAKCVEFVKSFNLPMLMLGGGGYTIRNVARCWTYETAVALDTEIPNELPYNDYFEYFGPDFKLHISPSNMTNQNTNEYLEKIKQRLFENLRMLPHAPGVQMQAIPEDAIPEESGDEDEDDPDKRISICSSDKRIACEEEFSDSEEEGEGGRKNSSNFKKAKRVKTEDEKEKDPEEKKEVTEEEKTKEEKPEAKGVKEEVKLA
Could you please mark Met for values of IC50 below 60 nM and Not met for values at or above it?

1) C[C@@H](c1ccc(C(=O)Nc2ccc(F)cc2N)cc1)n1nc(-c2ccc(CN(C)C)cc2)ccc1=O [Compound I-1] : Met
2) COc1cccc(-c2ccc(=O)n([C@@H](C)c3ccc(C(=O)Nc4ccccc4N)cc3)n2)c1 [Compound I-4] : Met
3) C[C@@H](c1ccc(C(=O)Nc2cccc(F)c2N)cc1)n1nc(-c2ccc(CN(C)C)cc2)ccc1=O [Compound I-9] : Not met
4) COc1ccc(N)c(NC(=O)c2ccc([C@H](C)n3nc(-c4ccc(CN(C)C)cc4)ccc3=O)cc2)c1 [Compound I-11] : Met
5) C[C@H](c1ccc(C(=O)Nc2ccc(F)cc2N)cc1)n1nc(-c2ccc(CN(C)C)cc2)ccc1=O [I-1 (R configuration), reference compound] : Not met
6) C[C@@H](c1ccc(C(=O)Nc2ccccc2N)cc1)n1nc(-c2ccccc2)ccc1=O [Compound I-10] : Met
7) COc1ccc(NC(=O)c2ccc([C@H](C)n3nc(-c4ccc(CN(C)C)cc4)ccc3=O)cc2)c(N)c1 [Compound I-8] : Not met
8) C[C@@H](c1ccc(C(=O)Nc2ccccc2N)cc1)n1nc(-c2cnn(C)c2)ccc1=O [Compound I-5] : Not met

* * *

# Tested on: K-562
# Assay summary: Antiproliferative activity, CCK-8, K-562
# Format: cell-based
# Protocol conditions: K-562, Chronic myeloid leukemia; read-out: Cytotoxicity (IC50 μM)
Reported endpoint: IC50 (µM)

1. C[C@@H](c1ccc(C(=O)Nc2ccc(F)cc2N)cc1)n1nc(-c2ccc(CN(C)C)cc2)ccc1=O : 0.473

* * *

# Tested on: SU-DHL-6
# Assay summary: Antiproliferative activity, CCK-8, SU-DHL-6
# Assay type: cell-based
# Protocol conditions: SU-DHL-6, Diffuse large B-cell lymphoma; read-out: Cytotoxicity (IC50 μM)
Reported endpoint: IC50

1. C[C@@H](c1ccc(C(=O)Nc2ccc(F)cc2N)cc1)n1nc(-c2ccc(CN(C)C)cc2)ccc1=O [Compound I-1] : 0.576 µM

* * *

# System: KARPAS-1106P
# Assay summary: Antiproliferative activity, CCK-8, KARPAS-1106P
# Format: cell-based
# Protocol conditions: Primary mediastinal large B-cell lymphoma, read-out: Cytotoxicity (IC50 μM)
Reported endpoint: IC50 (µM)

1. C[C@@H](c1ccc(C(=O)Nc2ccc(F)cc2N)cc1)n1nc(-c2ccc(CN(C)C)cc2)ccc1=O [Compound I-1] : 0.498

* * *

# Test system: MV-4-11
# Assay summary: Antiproliferative activity, CCK-8, MV-4-11
# Assay type: cell-based
# Protocol conditions: MV-4-11, Acute monocyte/Monocyte leukemia; read-out: Cytotoxicity (IC50 μM)
Reported endpoint: IC50 (µM)

1. C[C@@H](c1ccc(C(=O)Nc2ccc(F)cc2N)cc1)n1nc(-c2ccc(CN(C)C)cc2)ccc1=O [Compound I-1] : 0.088

* * *

# Tested on: RL
# Assay summary: Antiproliferative activity, CCK-8, RL
# Assay type: cell-based
# Protocol conditions: Diffuse large B-cell lymphoma, read-out: Cytotoxicity (IC50 μM)
Reported endpoint: IC50 (µM)

1) C[C@@H](c1ccc(C(=O)Nc2ccc(F)cc2N)cc1)n1nc(-c2ccc(CN(C)C)cc2)ccc1=O : 0.24

* * *

# Tested on: KMS-11
# Assay summary: Antiproliferative activity, CCK-8, KMS-11
# Format: cell-based
# Protocol conditions: KMS-11, Human multiple myeloma; read-out: Cytotoxicity (IC50 μM)
Reported endpoint: IC50 (µM)

1) C[C@@H](c1ccc(C(=O)Nc2ccc(F)cc2N)cc1)n1nc(-c2ccc(CN(C)C)cc2)ccc1=O : 0.671

Data credit: patent US20240150300A1
